Form field: mGPR Max Activity (one value per entry).
Target Under Test: mGPR65 (Mus musculus)
Construct: expressed in transfected cells; host or cells: HeLa (ATCC CCL-2), lentiviral transduction, pLX317
Assay Name: cAMP detection in HeLa expression cell line, mGPR65
Assay type: cell-based
Conditions Used: relative to 100uM forskolin (100%) and DMSO (0%); NA = no activity
Measure Name: mGPR Max Activity (%)

INSERT INTO assay_data (compound, unit_info, number) VALUES
  ('COc1cccc(Cc2cc(O)n3ncc(C(=O)Nc4ccc(C)cc4)c3n2)c1', '%', 21.71),
  ('CCS(=O)(=O)c1ccc(NC(=O)c2cnn3c(O)cc(-c4ccc(COC)cc4)nc23)cc1', '%', 44.17),
  ('Cc1ccc(NC(=O)c2cnn3c(O)cc(C(C)Cn4nccc4C)nc23)cc1 (stereo not drawn)', '%', 35.73);

====

compounds and their reported Emax
Target Under Test: hGPR65 (Homo sapiens, UniProt Q8IYL9)
Construct: expressed in transfected cells; host or cells: HeLa (ATCC CCL-2), lentiviral transduction, pLX317
Sequence (Q8IYL9 whole entry): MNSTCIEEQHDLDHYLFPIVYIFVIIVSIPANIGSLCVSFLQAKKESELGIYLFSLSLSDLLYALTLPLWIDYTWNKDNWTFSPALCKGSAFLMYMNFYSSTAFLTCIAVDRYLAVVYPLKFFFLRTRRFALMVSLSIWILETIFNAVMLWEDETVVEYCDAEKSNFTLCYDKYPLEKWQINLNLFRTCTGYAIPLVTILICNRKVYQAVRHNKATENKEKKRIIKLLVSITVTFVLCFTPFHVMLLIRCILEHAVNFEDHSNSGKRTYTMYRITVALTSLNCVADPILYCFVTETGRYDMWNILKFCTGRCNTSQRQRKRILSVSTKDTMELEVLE
Assay Name: cAMP detection in HeLa expression cell line, hGPR65
Format: cell-based
Conditions Used: HeLa, 2nd hGPR column pair; relative to 100uM forskolin (100%) and DMSO (0%); NA = no activity; read-out: hGPR Max Activity %
Measure Name: Emax (%)

INSERT INTO measurements (molecular_string, target_under_test, measure_name, number) VALUES
  ('COc1cc(-c2cc(O)n3ncc(C(=O)Nc4ccc(C)cc4)c3n2)ccc1F', 'hGPR65 (Homo sapiens, UniProt Q8IYL9)', 'Emax', 70.4),
  ('COCc1ccc(-c2cc(O)n3ncc(C(=O)Nc4ccc(C(=O)OC)cc4)c3n2)cc1', 'hGPR65 (Homo sapiens, UniProt Q8IYL9)', 'Emax', 68.2),
  ('Cc1ccc(NC(=O)c2cnn3c(O)cc(-c4ccc(-c5ccccc5C(C)C)cc4)nc23)cc1', 'hGPR65 (Homo sapiens, UniProt Q8IYL9)', 'Emax', 79.6),
  ('Cc1ccc(NC(=O)c2cnn3c(O)cc(-c4ccc(COC(C)C)cc4)nc23)cc1', 'hGPR65 (Homo sapiens, UniProt Q8IYL9)', 'Emax', 80),
  ('CC(C)OCc1ccc(-c2cc(O)n3ncc(C(=O)Nc4cccnc4)c3n2)cc1', 'hGPR65 (Homo sapiens, UniProt Q8IYL9)', 'Emax', 70.1);

====

This section presents compounds with their documented Emax values.
Target Under Test: mGPR65 (Mus musculus, UniProt Q61038)
Construct: expressed in transfected cells; host or cells: HeLa (ATCC CCL-2), lentiviral transduction, pLX317
Sequence (Q61038 whole entry): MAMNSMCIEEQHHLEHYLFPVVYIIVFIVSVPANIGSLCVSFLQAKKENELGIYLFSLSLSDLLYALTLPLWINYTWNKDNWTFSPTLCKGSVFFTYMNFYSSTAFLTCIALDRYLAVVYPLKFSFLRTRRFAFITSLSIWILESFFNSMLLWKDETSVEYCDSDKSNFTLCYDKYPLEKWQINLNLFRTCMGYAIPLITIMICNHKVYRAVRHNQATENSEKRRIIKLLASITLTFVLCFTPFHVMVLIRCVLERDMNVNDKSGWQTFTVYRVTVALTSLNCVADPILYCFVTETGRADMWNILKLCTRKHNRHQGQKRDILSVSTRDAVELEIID
Assay Name: cAMP detection in HeLa expression cell line, mGPR65
Assay type: cell-based
Conditions Used: HeLa; relative to 100uM forskolin (100%) and DMSO (0%); NA = no activity; read-out: mGPR Max Activity %
Method: HeLa stable expression cell lines were produced by lentiviral transduction. Briefly, lentiviral plasmids for each GPCR with a C-terminal V5 Tag ([…]) were made in a pLX317 backbone using competent Escherichia coli (New England Biolabs, C3050H). […] cAMP was measured in cells using the Lance Ultra cAMP Kit. […] Cells were counted in HBSS (Gibco, 14025092) and then resuspended in stimulation buffer prepared according to the manufacturer’s instructions and adjusted to pH 7.2 using 1 M sodium hydroxide. […]
Measure Name: Emax (%)

INSERT INTO assay_data (compound, measure_name, unit_info, number) VALUES
  ('Cc1ccc(NC(=O)c2cnn3c(O)cc(-c4ccc(F)cc4)nc23)cc1 [BRD1827]', 'Emax', '%', 43.6),
  ('COCc1ccc(-c2cc(OC)n3ncc(C(=O)Nc4ccc(C)cc4)c3n2)cc1 [BRD2344]', 'Emax', '%', 4.13),
  ('Cc1ccc(NC(=O)c2cnn3c(O)cc(-c4ccc(N5CCOCC5)c(Cl)c4)nc23)cc1 [BRD5062]', 'Emax', '%', 50.8),
  ('CC(C)OCc1ccc(-c2cc(O)n3ncc(C(=O)Nc4cccnc4)c3n2)cc1 [BRD5077]', 'Emax', '%', 70),
  ('Cc1ccc(NC(=O)c2cnn3c(O)cc(C(C)Cn4nccc4C)nc23)cc1 (stereo not shown) [BRD4822]', 'Emax', '%', 42),
  ('Cc1[nH]c2ccccc2c1Cc1cc(O)n2ncc(C(=O)Nc3ccccc3)c2n1 [BRD5828]', 'Emax', '%', 25.8),
  ('Cc1ccc(NC(=O)c2cnn3c(O)cc(-c4cnc(N5CCOCC5)c(Cl)c4)nc23)cc1 [BRD5065]', 'Emax', '%', 56.5),
  ('Cc1ccc(NC(=O)c2cnn3c(O)cc(-c4ccc(N5CCC(=O)CC5)cc4)nc23)cc1 [BRD8536]', 'Emax', '%', 63.5),
  ('Cc1ccc(NC(=O)c2cnn3c(O)cc(-c4ccc(-c5ccccc5)cc4)nc23)cc1 [BRD8716]', 'Emax', '%', 40.2),
  ('Cc1cnc(NC(=O)c2cnn3c(O)cc(-c4ccc(COC(C)C)cc4)nc23)cn1 [BRD5073]', 'Emax', '%', 71);

====

Test system: GFP-expressing HeLa cells
Assay Name: cAMP detection in HeLa expression cell line, GFP control
Format: cell-based, human
Conditions Used: Homo sapiens, HeLa, 1st GFP column pair; relative to 100uM forskolin (100%) and DMSO (0%); NA = no activity; read-out: GFP Max Activity %
Consider the following compounds and their measured Emax readings.
Measure Name: Emax (%)

INSERT INTO results (molecular_string, unit_info, number) VALUES
  ('Cc1ccc(NC(=O)c2cnn3c(O)cc(-c4ccc(COC(C)C)cc4)nc23)cc1Cl', '%', 1.78),
  ('Cc1ncc(NC(=O)c2cnn3c(O)cc(-c4ccc(COC(C)C)cc4)nc23)cn1', '%', 3.5),
  ('Cc1ccc(NC(=O)c2cnn3c(O)cc(-c4ccc(-c5ccccc5)cc4)nc23)cc1', '%', 1.95),
  ('O=C(O)c1cnn2c(O)cc(-c3ccc(F)cc3)nc12', '%', 3.25),
  ('Cc1ccc(NC(=O)c2cnn3c(O)cc(-c4ccc(C(N)=O)cc4)nc23)cc1', '%', 14.2),
  ('CCN(CC)C(=O)c1cnn2c(O)cc(-c3ccc(COC)cc3)nc12', '%', 10.8),
  ('CCCc1cc(-c2cc(O)n3ncc(C(=O)Nc4ccc(C)cc4)c3n2)no1', '%', 2.75),
  ('Cc1ccc(NC(=O)c2cnn3c(O)cc(-c4cccc(C)c4)nc23)cc1', '%', 2.36),
  ('CCn1cc(Cl)c(-c2cc(O)n3ncc(C(N)=O)c3n2)n1', '%', 40.7),
  ('Cc1ccc(NC(=O)c2cnn3c(O)cc(-c4ccc(COC(C)C)cc4)nc23)c(Cl)c1', '%', 2.48),
  ('COCc1ccc(-c2cc(O)n3ncc(C(=O)Nc4ccccc4C)c3n2)cc1', '%', 19.4),
  ('O=C(Nc1ccccc1)c1cnn2c(O)cc(COc3ccccc3)nc12', '%', 5.04),
  ('Cc1ccc(NC(=O)c2cnn3c(O)cc(-c4ccc(N5CCCC5)cc4)nc23)cc1', '%', 9.65),
  ('COCc1ccc(-c2cc(O)n3ncc(C(=O)NC4CCOCC4)c3n2)cc1', '%', 6.11);

====

Target Under Test: mGPR65 (Mus musculus)
Construct: expressed in transfected cells; host or cells: HeLa (ATCC CCL-2), lentiviral transduction, pLX317
Assay Name: cAMP detection in HeLa expression cell line, mGPR65
Assay type: cell-based
Conditions Used: HeLa, 2nd mGPR column pair; relative to 100uM forskolin (100%) and DMSO (0%); NA = no activity; read-out: mGPR Max Activity %
Each record's Emax is compared with L: < 30%; M: ≥ 30% and < 50%; H: ≥ 50% to give its class.

INSERT INTO measurements (compound, assigned_category) VALUES
  ('Cc1[nH]c2ccccc2c1Cc1cc(O)n2ncc(C(=O)Nc3ccccc3)c2n1', 'L'),
  ('COCc1ccc(-c2cc(O)n3ncc(C(=O)NCc4ccc(C)cc4)c3n2)cc1', 'M'),
  ('Cc1ccc(NC(=O)c2cnn3c(O)cc(-c4ccc(C(F)(F)F)cc4)nc23)cc1', 'L'),
  ('COCc1ccc(-c2cc(O)n3ncc(C(=O)Nc4ccccc4)c3n2)cc1', 'M'),
  ('Cc1ccc(NC(=O)c2cnn3c(O)cc(-c4ccc(COC(C)C)cc4)nc23)cc1', 'H'),
  ('Cc1ccc(NC(=O)c2cnn3c(O)cc(C(C)Cn4nccc4C)nc23)cc1 (centres unmarked)', 'L'),
  ('COCc1ccc(-c2cc(O)n3ncc(C(=O)Nc4cccc(C)c4)c3n2)cc1', 'H'),
  ('CN1N=C(SCc2ccc(Cl)cc2Cl)Sc2c1cnn(C)c2=O [BTB09089, reference compound]', 'H');
